- Tested on: L1210
- assaySummary: Antitumor activity against mouse L1210 cells […] in ip dosed C3H X DBA2 F1 hybrid mouse on day 0 and dosed once daily on days 1 to 5 assessed as increase in life span relative to control
- Format: functional
endpointLabel: D40 (mg/kg)
Response body: numeric value in mg/kg, unit text excluded.

The value of D40 measured for the compound `C[n+]1ccc(-c2ccc(NC(=O)c3ccc(Nc4cc[n+](C)c5ccccc45)cc3)cc2)cc1.Cc1ccc(S(=O)(=O)[O-])cc1.Cc1ccc(S(=O)(=O)[O-])cc1` turned out to be 2.2

The value of D40 measured for the compound `CCC[n+]1cccc2cc(NC(=O)/C=C/c3ccc(C(=O)Nc4ccc5c(ccc[n+]5CCC)c4)cc3)ccc21.Cc1ccc(S(=O)(=O)[O-])cc1.Cc1ccc(S(=O)(=O)[O-])cc1` turned out to be 4.3

The value of D40 measured for the compound `CCCCC[n+]1cccc2cc(NC(=O)c3ccc(C(=O)Nc4ccc5c(ccc[n+]5CCCCC)c4)cc3)ccc21.Cc1ccc(S(=O)(=O)[O-])cc1.Cc1ccc(S(=O)(=O)[O-])cc1` turned out to be 55
